# credit: patent US20210330616A1

TARGET_UNDER_TEST: Helz2 (Homo sapiens, UniProt Q9BYK8)
Construct: 3xFLAG (N); made in house; host or cells: HEK293 cells
Sequence (Q9BYK8 whole entry): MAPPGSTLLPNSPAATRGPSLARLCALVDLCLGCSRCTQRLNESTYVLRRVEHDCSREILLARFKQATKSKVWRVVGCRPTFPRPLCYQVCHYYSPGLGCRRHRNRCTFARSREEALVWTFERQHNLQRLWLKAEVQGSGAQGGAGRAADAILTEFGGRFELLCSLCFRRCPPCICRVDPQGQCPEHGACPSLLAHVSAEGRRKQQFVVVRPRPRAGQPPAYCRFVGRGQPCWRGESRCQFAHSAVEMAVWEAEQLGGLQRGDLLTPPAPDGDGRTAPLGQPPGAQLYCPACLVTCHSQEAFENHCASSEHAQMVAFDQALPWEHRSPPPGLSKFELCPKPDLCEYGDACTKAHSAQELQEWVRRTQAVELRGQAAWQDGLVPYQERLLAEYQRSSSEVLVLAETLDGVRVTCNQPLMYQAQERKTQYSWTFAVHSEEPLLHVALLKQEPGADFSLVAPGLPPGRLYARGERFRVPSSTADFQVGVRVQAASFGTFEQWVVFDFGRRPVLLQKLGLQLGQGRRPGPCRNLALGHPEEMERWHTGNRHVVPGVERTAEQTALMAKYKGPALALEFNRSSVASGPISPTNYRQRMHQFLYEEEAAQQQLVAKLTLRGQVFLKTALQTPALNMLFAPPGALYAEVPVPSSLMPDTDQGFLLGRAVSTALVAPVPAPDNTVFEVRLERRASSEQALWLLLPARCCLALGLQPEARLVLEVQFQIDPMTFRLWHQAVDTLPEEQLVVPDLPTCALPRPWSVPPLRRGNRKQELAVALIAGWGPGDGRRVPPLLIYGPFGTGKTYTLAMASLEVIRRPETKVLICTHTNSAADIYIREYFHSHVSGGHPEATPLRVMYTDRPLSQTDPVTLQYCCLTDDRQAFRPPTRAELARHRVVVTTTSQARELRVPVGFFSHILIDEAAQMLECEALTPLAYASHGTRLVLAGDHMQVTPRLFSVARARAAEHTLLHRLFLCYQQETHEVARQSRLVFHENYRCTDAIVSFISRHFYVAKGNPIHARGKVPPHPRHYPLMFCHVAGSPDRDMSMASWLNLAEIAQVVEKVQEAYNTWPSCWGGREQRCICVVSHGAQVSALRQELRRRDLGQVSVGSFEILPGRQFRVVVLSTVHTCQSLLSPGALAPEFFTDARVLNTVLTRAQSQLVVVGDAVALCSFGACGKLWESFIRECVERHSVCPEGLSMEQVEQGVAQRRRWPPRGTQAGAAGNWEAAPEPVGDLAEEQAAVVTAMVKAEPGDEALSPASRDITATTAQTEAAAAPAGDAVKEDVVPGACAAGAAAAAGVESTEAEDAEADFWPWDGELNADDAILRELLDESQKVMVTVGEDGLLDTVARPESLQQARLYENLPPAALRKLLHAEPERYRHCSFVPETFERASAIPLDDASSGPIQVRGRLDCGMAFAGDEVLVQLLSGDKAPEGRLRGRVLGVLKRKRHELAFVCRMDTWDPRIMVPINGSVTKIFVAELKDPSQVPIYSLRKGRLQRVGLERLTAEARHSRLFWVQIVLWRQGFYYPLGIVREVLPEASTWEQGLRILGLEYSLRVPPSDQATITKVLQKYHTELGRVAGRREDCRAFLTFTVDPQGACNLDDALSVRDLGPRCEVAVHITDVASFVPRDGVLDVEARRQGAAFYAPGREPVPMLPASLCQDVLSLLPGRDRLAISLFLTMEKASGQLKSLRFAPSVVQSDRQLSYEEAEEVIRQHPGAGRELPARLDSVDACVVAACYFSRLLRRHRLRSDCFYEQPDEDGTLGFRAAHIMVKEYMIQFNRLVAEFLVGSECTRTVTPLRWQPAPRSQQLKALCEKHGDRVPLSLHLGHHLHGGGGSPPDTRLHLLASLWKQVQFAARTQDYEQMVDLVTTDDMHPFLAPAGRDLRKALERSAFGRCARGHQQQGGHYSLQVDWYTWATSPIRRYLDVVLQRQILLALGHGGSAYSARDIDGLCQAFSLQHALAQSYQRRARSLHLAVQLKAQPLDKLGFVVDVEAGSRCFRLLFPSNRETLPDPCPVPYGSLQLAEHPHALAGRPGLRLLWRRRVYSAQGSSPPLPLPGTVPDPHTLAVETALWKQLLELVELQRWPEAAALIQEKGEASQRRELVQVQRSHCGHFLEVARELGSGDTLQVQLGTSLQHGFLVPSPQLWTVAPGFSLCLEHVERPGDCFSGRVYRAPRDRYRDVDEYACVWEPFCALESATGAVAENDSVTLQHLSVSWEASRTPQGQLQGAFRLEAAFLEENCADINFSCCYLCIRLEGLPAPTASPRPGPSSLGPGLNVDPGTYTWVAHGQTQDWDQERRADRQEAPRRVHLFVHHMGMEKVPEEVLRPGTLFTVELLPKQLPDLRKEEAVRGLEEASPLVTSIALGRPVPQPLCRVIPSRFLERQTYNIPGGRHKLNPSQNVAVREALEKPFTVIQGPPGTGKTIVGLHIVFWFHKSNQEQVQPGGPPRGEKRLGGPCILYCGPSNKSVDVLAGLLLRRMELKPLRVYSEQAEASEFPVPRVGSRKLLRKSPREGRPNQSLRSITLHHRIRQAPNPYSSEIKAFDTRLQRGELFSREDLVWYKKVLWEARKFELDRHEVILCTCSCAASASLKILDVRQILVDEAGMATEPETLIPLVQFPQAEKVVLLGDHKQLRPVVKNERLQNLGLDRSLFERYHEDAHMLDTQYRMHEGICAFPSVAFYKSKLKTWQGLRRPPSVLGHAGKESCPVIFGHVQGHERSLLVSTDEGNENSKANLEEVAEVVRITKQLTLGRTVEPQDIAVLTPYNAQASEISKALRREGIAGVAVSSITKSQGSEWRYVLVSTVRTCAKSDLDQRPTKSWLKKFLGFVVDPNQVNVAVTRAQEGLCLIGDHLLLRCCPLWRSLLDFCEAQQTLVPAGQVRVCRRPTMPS
PROTOCOL_SUMMARY: High-throughput screening through surface plasmon resonance for low-molecular-weight compounds that bind to Helz2
Format: binding
SETTINGS: KD value for binding to and dissociating from Helz2, surface plasmon resonance, purified Helz2 protein
Description: 1. High-Throughput Screening for Low-Molecular-Weight Compounds that Bind to Helz2 HEK293 cells were allowed to express Helz2 by using a Helz2 expression vector (p3×FLAG-CMV10-pDIP2), and Helz2 protein was purified.
Where a name gives a salt, the structure may show the parent alone.
ATTRIBUTE_MEASURED: Kd

Examples from the recorded data:
• CN(C)C(=O)C(CCN1CCC(O)(c2ccc(Cl)cc2)CC1)(c1ccccc1)c1ccccc1 [loperamide hydrochloride] = 0.001 to 0.49 µM
• CCN(C)C(=O)Oc1cccc([C@H](C)N(C)C)c1 [rivastigmine tartrate] = 0.001 to 0.49 µM

Lab note: CC(C)CC(N(C)C)C1(c2ccc(Cl)cc2)CCC1 (stereo not drawn) [sibutramine hydrochloride] gave Kd of 0.001 to 0.49 µM
